Catalogue of Primary screen Viability (% of control) Kelly Vehicle readings, one per entry.
test system: KELLY cells; assay: Primary miRNA mimic screen in combination with low dose IC30 of vincristine or doxorubicin, cell viability; type: cell-based; details: miRNA mimic 25 nM + vehicle
readoutLabel: Primary screen Viability (% of control) Kelly Vehicle

| substance | result |
| --- | --- |
| hsa-miR-34a-5p (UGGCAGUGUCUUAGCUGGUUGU; chemistry not given here; listed as Homo sapiens) | 72 % of control |
| hsa-miR-485-3p (guide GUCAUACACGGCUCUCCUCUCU; chemistry not given here; listed as Homo sapiens) | 72 % of control |
| hsa-miR-3151 (GGUGGGGCAAUGGGAUCAGGU; chemistry not given here; listed as Homo sapiens) | 102 % of control |
| hsa-miR-1321 (CAGGGAGGUGAAUGUGAU; chemistry not given here; listed as Homo sapiens) | 42 % of control |

----------
Tested on: KELLY cells
Assay: Secondary validation screen of synthetic lethal miRNAs with low dose IC30 chemotherapy, cell viability
Assay type: cell-based
Conditions: miRNA mimic + low dose IC30 vincristine
Method: KELLY cells were grown in 10% FCS/RPMI as described in Example 1 and reverse transfected in 384-well plate format with 25 nM of a miRNA from the Dharmacon microRNA mimic Library (version 16.0) using liquid-handling robot Calliper Sciclone ALH3000 according to the conditions described in Table 3. After 24 hours, media was changed using a BioTek 406. […] 144 hours post-transfection, cell viability was determined using CellTiter-Glo luminescent assay (Promega) at 1:2 dilution. […]
readoutLabel: Secondary screen Viability (% of control) Kelly VCR

| substance | result |
| --- | --- |
| hsa-miR-34a-5p (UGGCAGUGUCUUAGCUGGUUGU; chemistry not given here; listed as Homo sapiens) | 35 % of control |
| hsa-miR-515-3p (guide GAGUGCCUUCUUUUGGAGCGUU; chemistry not given here; listed as Homo sapiens) | 73 % of control |
| hsa-miR-99b-5p (guide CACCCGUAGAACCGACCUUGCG; chemistry not given here; listed as Homo sapiens) | 44 % of control |
| hsa-miR-485-3p (guide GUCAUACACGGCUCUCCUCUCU; chemistry not given here; listed as Homo sapiens) | 53 % of control |
| hsa-miR-1321 (CAGGGAGGUGAAUGUGAU; chemistry not given here; listed as Homo sapiens) | 24 % of control |
| hsa-miR-449a (guide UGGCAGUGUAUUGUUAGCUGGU; chemistry not given here; listed as Homo sapiens) | 35 % of control |
| hsa-miR-3151 (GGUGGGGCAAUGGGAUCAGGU; chemistry not given here; listed as Homo sapiens) | 47 % of control |

----------
A collection of substances and their measured Additional cell line Viability (% of control) SKNDZ VCR
Tested on: SK-N-DZ MYCN-amplified neuroblastoma cell line
Experiment: Secondary validation screen of synthetic lethal miRNAs with low dose IC30 chemotherapy, additional cell line
Type: cell-based
Conditions: miRNA mimic + low dose IC30 vincristine
Protocol: KELLY cells were grown in 10% FCS/RPMI as described in Example 1 and reverse transfected in 384-well plate format with 25 nM of a miRNA from the Dharmacon microRNA mimic Library (version 16.0) using liquid-handling robot Calliper Sciclone ALH3000 according to the conditions described in Table 3. After 24 hours, media was changed using a BioTek 406. […] 144 hours post-transfection, cell viability was determined using CellTiter-Glo luminescent assay (Promega) at 1:2 dilution. […]
readoutLabel: Additional cell line Viability (% of control) SKNDZ VCR

| substance | result |
| --- | --- |
| hsa-miR-449a (guide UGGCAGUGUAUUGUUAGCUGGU; chemistry not given here; listed as Homo sapiens) | 44 % of control |
| hsa-miR-3151 (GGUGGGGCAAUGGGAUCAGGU; chemistry not given here; listed as Homo sapiens) | 72 % of control |
| hsa-miR-515-3p (guide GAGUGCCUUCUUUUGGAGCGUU; chemistry not given here; listed as Homo sapiens) | 70 % of control |
| hsa-miR-3646 (AAAAUGAAAUGAGCCCAGCCCA; chemistry not given here; listed as Homo sapiens) | 110 % of control |
